Attribute: IC50
- studySystem: Full-length PRMT5 enzyme (NCBI Reference sequence NP_006100.2) co-expressed with His6-MEP50 (Homo sapiens (Human), UniProt O14744)
- Sequence (O14744 whole entry): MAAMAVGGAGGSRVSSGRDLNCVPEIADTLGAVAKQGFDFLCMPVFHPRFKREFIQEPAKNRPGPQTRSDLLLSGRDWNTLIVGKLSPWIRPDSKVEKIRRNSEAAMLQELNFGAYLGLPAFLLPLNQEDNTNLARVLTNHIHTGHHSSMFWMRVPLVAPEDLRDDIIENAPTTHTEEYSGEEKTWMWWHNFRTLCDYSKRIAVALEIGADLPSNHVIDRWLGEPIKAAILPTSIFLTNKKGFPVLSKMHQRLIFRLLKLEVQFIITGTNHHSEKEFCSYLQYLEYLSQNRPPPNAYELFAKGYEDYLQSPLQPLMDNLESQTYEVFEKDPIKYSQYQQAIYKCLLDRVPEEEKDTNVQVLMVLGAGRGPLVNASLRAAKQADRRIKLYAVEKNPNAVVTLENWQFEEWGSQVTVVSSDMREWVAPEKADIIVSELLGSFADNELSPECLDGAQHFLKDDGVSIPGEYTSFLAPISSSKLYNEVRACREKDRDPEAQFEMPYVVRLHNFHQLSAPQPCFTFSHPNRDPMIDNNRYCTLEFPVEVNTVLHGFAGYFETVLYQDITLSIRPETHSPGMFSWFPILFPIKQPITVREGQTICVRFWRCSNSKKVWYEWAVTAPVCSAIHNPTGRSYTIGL
- Sequence (Q9BQA1 whole entry partner): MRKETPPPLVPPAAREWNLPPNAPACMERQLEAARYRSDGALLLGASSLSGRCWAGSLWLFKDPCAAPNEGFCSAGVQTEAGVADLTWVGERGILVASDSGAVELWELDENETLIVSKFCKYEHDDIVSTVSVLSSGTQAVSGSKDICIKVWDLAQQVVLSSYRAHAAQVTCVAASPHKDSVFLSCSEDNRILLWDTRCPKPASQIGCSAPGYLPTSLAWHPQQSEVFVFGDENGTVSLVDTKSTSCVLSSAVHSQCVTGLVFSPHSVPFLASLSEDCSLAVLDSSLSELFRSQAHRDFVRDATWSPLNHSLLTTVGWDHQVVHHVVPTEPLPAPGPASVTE
The reply should be a number in nM, with the unit left off.

A selection of reference data follows.
compound	uom	assayResult
Fc1cc(-c2nc3cc(C4CCNCC4)cnc3[nH]2)ccc1OCc1ccccc1	nM	276
c1ccc(CSc2ccc(-c3nc4ccc(N5CCNCC5)nc4[nH]3)cc2)cc1	nM	585
CC(C)(C)OC(=O)N1CCC(CNc2ccc3nc(-c4ccc(OCc5ccccc5)cc4)[nH]c3n2)CC1	nM	1240
CS(=O)(=O)N1CCC(c2ccc3nc(-c4ccc(OCc5ccccc5)cc4)[nH]c3n2)CC1	nM	355
CCS(=O)(=O)N1CCN(c2ccc3nc(-c4ccc(OCc5ccccc5)c(C)c4)[nH]c3n2)CC1	nM	1360
O=S1(=O)CCN(c2ccc3nc(-c4ccc(OCc5ccccc5)cc4)[nH]c3n2)CC1	nM	619

The reported value for [O-][S+]1CCN(c2ccc3nc(-c4ccc(OCc5ccccc5)cc4)[nH]c3n2)CC1 in terms of IC50 is 570

The reported value for c1ccc(OCc2ccc(-c3nc4ccc(C5CCNCC5)nc4[nH]3)cc2)cc1 in terms of IC50 is 151

---

- studySystem: Full-length PRMT5 enzyme (NCBI Reference sequence NP_006100.2) co-expressed with His6-MEP50 (Homo sapiens (Human), UniProt O14744)
endpointLabel: IC50 (nM)
The reply should be a number in nM, with the unit left off.

1. FC(F)(F)c1ccc(COc2ccc(-c3nc4ccc(N5CCNCC5)nc4[nH]3)cc2)cc1 1860

The reported value for c1ccc(OCc2ccc(-c3nc4cccnc4[nH]3)cc2)cc1 in terms of IC50 is 1490

The reported value for CC(=O)N1CCC(c2cnc3[nH]c(-c4ccc(COc5ccccc5)cc4)nc3c2)CC1 in terms of IC50 is 375

The reported value for CCS(=O)(=O)N1CCN(c2ccc3nc(-c4ccc(OCc5ccccc5)cc4)[nH]c3n2)CC1 in terms of IC50 is 148

The reported value for NCC1CCN(c2ccc3nc(-c4ccc(OCc5ccccc5)cc4)[nH]c3n2)CC1 in terms of IC50 is 426

The reported value for CCS(=O)(=O)N1CCN(c2ccc3nc(-c4ccc(OCc5ccccc5)c(-c5cccnc5)c4)[nH]c3n2)CC1 in terms of IC50 is 542

The reported value for NC1CCN(c2ccc3nc(-c4ccc(OCc5ccccc5)cc4)[nH]c3n2)CC1 in terms of IC50 is 583

The reported value for c1ccc(COc2ccc(-c3nc4ccc(-c5cncnc5)nc4[nH]3)cc2)cc1 in terms of IC50 is 9000

---

Attribute: log10 IC50
- studySystem: Full-length PRMT5 enzyme (NCBI Reference sequence NP_006100.2) co-expressed with His6-MEP50 (Homo sapiens (Human), UniProt O14744)
Where a name gives a salt, the structure may show the parent alone.
In our notation, the value equals log10 of IC50 in nM.

compound	assayResult
Fc1cccc(COc2ccc(-c3nc4ccc(N5CCNCC5)nc4[nH]3)cc2)c1 [Example 58]	2.52
O=C(O)c1cc(-c2nc3cc(C4CCNCC4)cnc3[nH]2)ccc1OCc1ccccc1 [Example 67, dihydrochloride salt]	3.57
CCS(=O)(=O)N1CCN(c2ccc3nc(-c4ccc(OCc5ccccc5)c(OC)c4)[nH]c3n2)CC1 [Example 75]	2.49
CN1CCC(c2cnc3[nH]c(-c4ccc(COc5ccccc5)cc4)nc3c2)CC1 [Example 11]	2.68
Cn1cc(-c2ccc3nc(-c4ccc(OCc5ccccc5)cc4)[nH]c3n2)cn1 [Example 107]	3.22

The reported value for CN1CCN(c2ccc3nc(-c4ccc(OCc5ccccc5)cc4)[nH]c3n2)CC1 [Example 26] in terms of log10 IC50 is 2.12

The reported value for CC(C)(C)OC(=O)NCC1CCCN(c2ccc3nc(-c4ccc(OCc5ccccc5)cc4)[nH]c3n2)C1 (centres unmarked) [Example 28] in terms of log10 IC50 is 3.23

The reported value for CN1CCC(c2ccc3nc(-c4ccc(COc5ccccc5)cc4)[nH]c3n2)CC1 [Example 86] in terms of log10 IC50 is 2.18

---

- studySystem: Full-length PRMT5 enzyme (NCBI Reference sequence NP_006100.2) co-expressed with His6-MEP50 (Homo sapiens (Human))
Attribute: IC50
The reply should be a number in nM, with the unit left off.

compound	IC50 / nM
CN(c1ccc2nc(-c3ccc(OCc4ccccc4)cc3)[nH]c2n1)C1CCCN(C(=O)OC(C)(C)C)C1 (centres unmarked) [Example 30]	2660
O=S(=O)(C1CC1)N1CCN(c2ccc3nc(-c4ccc(OCc5ccccc5)cc4)[nH]c3n2)CC1 [Example 92]	279
CNC(=O)Cc1ccnc2[nH]c(-c3ccc(OCc4ccccc4)cc3)nc12 [Example 93]	2140

Please examine the following record next.
The reported value for O=S(=O)(C1CC1)N1CCC(c2ccc3nc(-c4ccc(OCc5ccccc5)cc4)[nH]c3n2)CC1 [Example 89] in terms of IC50 is 1340

---

The following are reported IC50 results, target or system UniProt:O14744.
The reply should be a number in nM, with the unit left off.

A selection of reference data follows.
compound	endpointLabel	uom	assayResult
Fc1ccccc1COc1ccc(-c2nc3ccc(N4CCNCC4)nc3[nH]2)cc1 [Example 57]	IC50	nM	981
c1ccc(OCc2ccc(-c3nc4cc(C5CCCNC5)cnc4[nH]3)cc2)cc1 (centres unmarked) [Example 16]	IC50	nM	107

The reported value for CCS(=O)(=O)N1CC=C(c2ccc3nc(-c4ccc(OCc5ccccc5)cc4)[nH]c3n2)CC1 [Example 97] in terms of IC50 is 217

The reported value for COC(=O)c1cc(-c2nc3cc(C4CCNCC4)cnc3[nH]2)ccc1OCc1ccccc1 [Example 66] in terms of IC50 is 608

The reported value for CCOC(=O)N1CCC(c2ccc3nc(-c4ccc(OCc5ccccc5)cc4)[nH]c3n2)CC1 [Example 88] in terms of IC50 is 477

The reported value for c1ccc(OCc2ccc(-c3nc4ccc(C5CCCNC5)nc4[nH]3)cc2)cc1 (centres unmarked) [Example 35] in terms of IC50 is 204

The reported value for CN1CCCC(c2ccc3nc(-c4ccc(COc5ccccc5)cc4)[nH]c3n2)C1 (centres unmarked) [Example 99] in terms of IC50 is 148

The reported value for CC(C)(C)OC(=O)N1CCC(Nc2ccc3nc(-c4ccc(OCc5ccccc5)cc4)[nH]c3n2)CC1 [Example 32] in terms of IC50 is 827

---

Attribute: IC50
- studySystem: Full-length PRMT5 enzyme (NCBI Reference sequence NP_006100.2) co-expressed with His6-MEP50 (Homo sapiens (Human), UniProt O14744)
The reply should be a number in nM, with the unit left off.

compound	uom	IC50
FC(F)(F)c1ccccc1COc1ccc(-c2nc3ccc(N4CCNCC4)nc3[nH]2)cc1 [Example 60]	nM	1660
c1ccc(COc2ccc(-c3nc4cc(C5CCNCC5)cnc4[nH]3)cc2-c2cccnc2)cc1 [Example 64]	nM	336
CC(=O)N1CC=C(c2ccc3nc(-c4ccc(OCc5ccccc5)cc4)[nH]c3n2)CC1 [Example 98]	nM	166
c1ccc(COc2ccc(-c3nc4ccc(N5CCSCC5)nc4[nH]3)cc2)cc1 [Example 23]	nM	497
Cn1ccc(-c2ccc3nc(-c4ccc(COc5ccccc5)cc4)[nH]c3n2)n1 [Example 38]	nM	2390
O=C1CNCCN1c1ccc2nc(-c3ccc(OCc4ccccc4)cc3)[nH]c2n1 [Example 21]	nM	774
c1ccc(COc2ccc(-c3nc4ccc(C5CC5)nc4[nH]3)cc2)cc1 [Example 105]	nM	1500
CS(=O)(=O)N1CCN(c2ccc3nc(-c4ccc(OCc5ccccc5)cc4)[nH]c3n2)CC1 [Example 91]	nM	820

The reported value for Fc1ccc(COc2ccc(-c3nc4ccc(N5CCNCC5)nc4[nH]3)cc2)cc1 [Example 59] in terms of IC50 is 535

The reported value for CC(=O)N1CCC(c2cnc3[nH]c(-c4ccc(OCc5ccccc5)cc4)nc3c2)CC1 [Example 13] in terms of IC50 is 339

The reported value for c1ccc(COc2ccc(-c3nc4ccc(NC5CCNCC5)nc4[nH]3)cc2)cc1 [Example 53] in terms of IC50 is 581

The reported value for Cn1cc(-c2cc(-c3nc4cc(C5CCNCC5)cnc4[nH]3)ccc2OCc2ccccc2)cn1 [Example 63] in terms of IC50 is 215

The reported value for c1ccc(COc2ccc(-c3nc4ccc(Nc5cn[nH]c5)nc4[nH]3)cc2)cc1 [Example 20] in terms of IC50 is 847

The reported value for CCS(=O)(=O)N1CCN(c2ccc3nc(-c4ccc(OCc5ccccc5)c(-c5ccn[nH]5)c4)[nH]c3n2)CC1 [Example 70] in terms of IC50 is 1110

The reported value for c1ccc(COc2ccc(-c3nc4ccc(NCC5CCNCC5)nc4[nH]3)cc2)cc1 [Example 52] in terms of IC50 is 935

The reported value for CC(=O)NCCNc1ccc2nc(-c3ccc(OCc4ccccc4)cc3)[nH]c2n1 [Example 22] in terms of IC50 is 487

The reported value for CCS(=O)(=O)N1CCN(c2ccc3nc(-c4ccc(OCc5ccccc5)c(-c5cnn(C)c5)c4)[nH]c3n2)CC1 [Example 69] in terms of IC50 is 447
